target: MCH-5 (Homo sapiens); assay: Dissociation constant Ki and irreversible rate constant k3 for irreversible inhibitors (Mch5); type: biochemical; conditions: continuous assay 60 min, reaction initiated by adding enzyme to substrate-inhibitor mixture
Sequence (Q14790 217-374 limits assumed, species assumed): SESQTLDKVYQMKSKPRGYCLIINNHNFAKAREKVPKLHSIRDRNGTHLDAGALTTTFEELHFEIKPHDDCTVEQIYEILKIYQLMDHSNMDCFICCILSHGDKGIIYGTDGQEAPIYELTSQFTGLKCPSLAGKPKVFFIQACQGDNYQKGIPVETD
Sequence (Q14790 385-479 limits assumed, species assumed): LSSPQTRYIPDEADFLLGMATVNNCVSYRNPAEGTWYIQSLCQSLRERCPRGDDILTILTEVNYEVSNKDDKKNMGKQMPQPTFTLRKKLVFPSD
MEASURED_METRIC: MCH-5 k3/Ki

Short answer for `C[C@H](NC(=O)C(=O)NCc1cccc2ccccc12)C(=O)N[C@@H](CC(=O)O)C(=O)COC(=O)c1c(Cl)cccc1Cl` : MCH-5 k3/Ki was 936,000 moles^−1 seconds^−1

Kindly note the recorded MCH-5 k3/Ki for C[C@H](NC(=O)C(=O)Nc1cccc2c1CCCC2)C(=O)N[C@@H](CC(=O)O)C(=O)COP(=O)(c1ccccc1)c1ccccc1 [Example 48] , which is 1,150,000 moles^−1 seconds^−1

What the record says about `CC(C)[C@H](NC(=O)C(=O)Nc1ccccc1Cc1ccccc1)C(=O)N[C@@H](CC(=O)O)C(=O)COc1c(F)c(F)cc(F)c1F` : MCH-5 k3/Ki is 105,000 moles^−1 seconds^−1

The measured MCH-5 k3/Ki associated with `CC(C)[C@H](NC(=O)C(=O)Nc1ccccc1F)C(=O)N[C@@H](CC(=O)O)C(=O)COc1c(F)c(F)cc(F)c1F` reads 49,600 moles^−1 seconds^−1

Reported MCH-5 k3/Ki ( `CC(C)[C@H](NC(=O)C(=O)Nc1ccccc1C(C)(C)C)C(=O)N[C@@H](CC(=O)O)C(=O)COc1c(F)c(F)cc(F)c1F` ) = 1,165,000 moles^−1 seconds^−1

Quick note, MCH-5 k3/Ki for C[C@H](NC(=O)C(=O)Nc1ccccc1Cl)C(=O)N[C@@H](CC(=O)O)C(=O)COC(=O)c1c(Cl)cccc1Cl [Example 42] landed at 1,630,000 moles^−1 seconds^−1

In plain terms, `CC(C)[C@H](NC(=O)C(=O)NCCc1ccccc1)C(=O)N[C@@H](CC(=O)O)C(=O)COc1c(F)c(F)cc(F)c1F` has a documented MCH-5 k3/Ki of 16,600 moles^−1 seconds^−1

# MCH-5 k3/Ki of `C[C@H](NC(=O)C(=O)Nc1ccccc1F)C(=O)N[C@@H](CC(=O)O)C(=O)COc1c(F)c(F)cc(F)c1F` = 170,000 moles^−1 seconds^−1

Value of MCH-5 k3/Ki reported for the compound `C[C@H](NC(=O)C(=O)NCCc1ccccc1)C(=O)N[C@@H](CC(=O)O)C(=O)COP(=O)(c1ccccc1)c1ccccc1` is 667,000 moles^−1 seconds^−1

Just for reference, patent US7183260B2 is where these values come from.
